assay: chemical genetic growth profiling, strain panel (AID 1159580);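 further: tested at 20 µM; growth read once vehicle control cultures reached saturation at 30 °C; 1 = growth at the plate median or of vehicle wells; lower values mean less growth of the strain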; details: S. cerevisiae deletion strains, growth OD, locus YAL021C, strain ccr4, active compounds read low
In all, about 5,500 compounds went through this assay and about 2,000 (36%) were called active. Inconclusive results (about 18%) are left out. This is one part of the list.
parameter: normalized growth
Form rule: numeric answer, no unit written next to it.

Identify the reported normalized growth for the following entry. CC1(C)C=CC(=O)[C@@]2(C)C1CC(=O)[C@]1(C)C2CC[C@@]2(C)[C@H](c3ccoc3)OC(=O)C3OC321 (stereo partly drawn)
0.977

Specify measured normalized growth for C[C@]12C=CC(=O)C=C1CCC1C2[C@@H](O)C[C@@]2(C)C1CC[C@]2(O)C(=O)COP(=O)(O)O (stereo partly drawn) .
1.01

Return normalized growth for the following molecule: CCCCCC(=O)Cc1cc(O)cc(O)c1C(=O)Oc1cc(CC(=O)CCCCC)c(C(=O)O)c(OC)c1
0.892

Retrieve normalized growth measured for N#Cc1nn(-c2c(Cl)cc(C(F)(F)F)cc2Cl)c(N)c1S(=O)C(F)(F)F (stereo not drawn) and print it.
0.995

Look up and report measured normalized growth for this entry: CC1(C)C2CC(=O)[C@]3(C)C(CC[C@@]4(C)[C@H](c5ccoc5)OC(=O)[C@H]5O[C@]543)[C@@]2(C)C(=O)C[C@H]1O (stereo partly drawn)
1.01

Return normalized growth (reported value) for this molecule: CCCCC1C(=O)N(c2ccccc2)N(c2ccc(O)cc2)C1=O (stereo not drawn)
1.02

Item CC(C)(C)NCC(O)c1cc(Cl)c(N)c(Cl)c1 (stereo not drawn) : provide normalized growth
0.985

Look up and state reported normalized growth for NC(N)=NC(=O)c1nc(Cl)c(N)nc1N
0.977

Note down normalized growth recorded for Cc1cc(C2CCCCC2)n(O)c(=O)c1
0.0678

For the molecule CCOC(=O)c1c(C)cc(O)cc1O , give its reported normalized growth.
0.924

Identify measured normalized growth associated with COc1cccc2c(C)cc(=O)[nH]c12
1.01

Complete the entry with normalized growth for O=c1ccc2c(O)c3ccoc3cc2o1
0.992

Give the reported normalized growth for this molecule. NC(=O)NCCCC(N)C(=O)O (stereo not drawn)
0.962

For the molecule COc1ccc2ccc(=O)oc2c1 , report normalized growth.
1

Tell me measured normalized growth for OCC(O)C(O)C(O)C(O)C(O)CO (stereo not drawn) please.
0.995

Answer with the recorded normalized growth for the molecule listed here: COc1c2ccoc2cc2oc(=O)ccc12
0.957

Identify the reported normalized growth for the following entry. CC[n+]1c(-c2ccccc2)c2cc(N)ccc2c2ccc(N)cc21
0.918

Assign normalized growth to the following record: O=c1c(O)c(-c2ccc(O)c(O)c2)oc2c(O)c(O)cc(O)c12
0.864

Identify measured normalized growth corresponding to CC(=O)[C@@]1(O)CCC2C3C[C@H](C)C4=CC(=O)C=CC4(C)[C@@]3(F)[C@@H](O)C[C@@]21C (stereo partly drawn)
0.965

// fetch normalized growth given entry NC(=O)c1ncn([C@@H]2O[C@H](CO)[C@@H](O)[C@H]2O)n1
1.02

Consider the molecule CCOC(=O)c1c(C)cc(OC)cc1O and give its recorded normalized growth.
1.02

Give normalized growth for C[C@H]1O[C@H](OC2[C@@H](O)[C@@H](O)C(O)[C@H](O)[C@H]2O)[C@@H](N)C[C@@H]1N=C(N)C(=O)O (stereo partly drawn)
0.989

Look up and report measured normalized growth for this entry: CCCCCCC(C)OC(=O)COc1ccc(Cl)cc1Cl (stereo not drawn)
0.991
